Reference source: patent US20250215012A1

DC50 values, listed per item
Target: IKZF2 (Homo sapiens (Human), UniProt Q96SW2+Q9UKS7)
Sequence (Q9UKS7 whole entry): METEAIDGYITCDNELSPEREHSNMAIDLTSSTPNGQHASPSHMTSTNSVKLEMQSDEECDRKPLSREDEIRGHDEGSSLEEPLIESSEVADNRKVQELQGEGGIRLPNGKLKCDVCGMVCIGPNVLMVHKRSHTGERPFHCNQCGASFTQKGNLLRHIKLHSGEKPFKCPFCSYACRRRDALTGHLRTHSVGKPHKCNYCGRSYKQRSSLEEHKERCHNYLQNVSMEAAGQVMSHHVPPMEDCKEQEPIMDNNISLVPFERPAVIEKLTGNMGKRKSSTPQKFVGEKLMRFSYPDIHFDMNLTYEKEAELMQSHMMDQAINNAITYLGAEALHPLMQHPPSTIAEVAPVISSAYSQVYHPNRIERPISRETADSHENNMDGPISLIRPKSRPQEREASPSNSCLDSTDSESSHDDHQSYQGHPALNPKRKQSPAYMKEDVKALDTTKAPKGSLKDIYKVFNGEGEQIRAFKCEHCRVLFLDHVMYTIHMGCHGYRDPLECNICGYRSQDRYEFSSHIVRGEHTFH
Sequence (Q96SW2 whole entry): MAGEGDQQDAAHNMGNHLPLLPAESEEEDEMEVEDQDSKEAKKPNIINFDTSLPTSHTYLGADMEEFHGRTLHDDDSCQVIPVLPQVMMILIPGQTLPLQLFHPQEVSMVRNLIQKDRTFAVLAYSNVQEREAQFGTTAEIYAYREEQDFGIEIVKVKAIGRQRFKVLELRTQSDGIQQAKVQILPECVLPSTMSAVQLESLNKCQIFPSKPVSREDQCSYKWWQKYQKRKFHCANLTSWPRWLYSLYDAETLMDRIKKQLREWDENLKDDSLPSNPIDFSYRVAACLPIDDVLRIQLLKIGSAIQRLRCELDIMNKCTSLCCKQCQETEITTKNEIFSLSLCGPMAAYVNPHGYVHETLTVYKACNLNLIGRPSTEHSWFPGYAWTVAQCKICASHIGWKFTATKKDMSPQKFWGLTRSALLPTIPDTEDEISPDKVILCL
Sequence (Q16531 whole entry partner): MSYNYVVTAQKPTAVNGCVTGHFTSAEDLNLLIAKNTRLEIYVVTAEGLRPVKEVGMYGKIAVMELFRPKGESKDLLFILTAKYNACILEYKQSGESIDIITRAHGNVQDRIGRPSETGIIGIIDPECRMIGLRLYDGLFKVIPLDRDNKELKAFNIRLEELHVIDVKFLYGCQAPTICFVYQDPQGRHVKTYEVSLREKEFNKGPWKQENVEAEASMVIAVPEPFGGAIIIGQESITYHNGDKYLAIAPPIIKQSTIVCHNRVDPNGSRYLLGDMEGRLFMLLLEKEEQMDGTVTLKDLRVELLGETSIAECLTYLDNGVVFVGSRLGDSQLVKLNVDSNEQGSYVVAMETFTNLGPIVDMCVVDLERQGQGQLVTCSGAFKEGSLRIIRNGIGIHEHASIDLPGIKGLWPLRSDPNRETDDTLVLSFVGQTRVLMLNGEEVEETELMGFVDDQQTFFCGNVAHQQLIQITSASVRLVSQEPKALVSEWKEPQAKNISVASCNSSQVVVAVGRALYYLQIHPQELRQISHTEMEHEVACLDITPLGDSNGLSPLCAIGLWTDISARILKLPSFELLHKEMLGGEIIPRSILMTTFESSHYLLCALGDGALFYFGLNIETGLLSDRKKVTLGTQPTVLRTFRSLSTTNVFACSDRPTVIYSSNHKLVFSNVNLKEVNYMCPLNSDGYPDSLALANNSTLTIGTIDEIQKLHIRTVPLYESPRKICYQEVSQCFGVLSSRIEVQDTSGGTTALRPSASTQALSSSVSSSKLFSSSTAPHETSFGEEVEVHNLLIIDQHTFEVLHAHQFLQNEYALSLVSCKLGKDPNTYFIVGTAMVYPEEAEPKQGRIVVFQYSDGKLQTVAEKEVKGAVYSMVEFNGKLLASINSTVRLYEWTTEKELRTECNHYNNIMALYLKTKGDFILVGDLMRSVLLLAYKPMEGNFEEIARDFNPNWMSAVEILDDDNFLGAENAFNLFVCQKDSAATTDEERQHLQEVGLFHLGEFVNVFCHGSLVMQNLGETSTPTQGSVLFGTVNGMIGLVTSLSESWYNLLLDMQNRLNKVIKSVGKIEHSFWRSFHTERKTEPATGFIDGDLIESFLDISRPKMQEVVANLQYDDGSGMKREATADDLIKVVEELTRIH
Experiment: IKZF2 HiBiT Assay (Jurkat-IKZF2-HiBiT cell line)
Assay type: cell-based
Settings: Jurkat-IKZF2-HiBiT cells, 24 hours; read-out: HiBit assay degradation analysis DC50

Sample answers from the record:
1. [2H]C([2H])([2H])n1ncc2ccc(CN3CCC4(CC3)COc3c4ccc4c3CN([C@H]3CCC(=O)NC3=O)C4=O)cc21; < 50 nM
2. O=C1CC[C@H](N2Cc3c(ccc4c3OCC43CCN(Cc4cccc(-c5cnn(C[C@@H]6COCCO6)c5)c4)CC3)C2=O)C(=O)N1; 50 to 200 nM

Entry CN(C(=O)c1cccc(CN2CCC3(CC2)COc2c3ccc3c2CN(C2CCC(=O)NC2=O)C3=O)c1)c1cccc(F)c1 (stereo not drawn) has what DC50?
50 to 200 nM
